- Tested on: KRAS patient-derived spheroids with HUVEC/MSC, viability;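 note: spheroids exposed to agents for seven days before readout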
- Test summary: Anticancer human tumor 941728-121-R-J1-PDC patient-derived lung adenocarcinoma cell line growth inhibition [KRAS2]
- Reported conditions: second compound 3.16 µM; first compound 0.01 µM; hits give low values
Hi there, I'd appreciate the recorded viability, T/C for every entry that follows.

Some solved cases for reference:
Compound	viability, T/C
CC(=O)Nc1cccc(-n2c(=O)n(C3CC3)c(=O)c3c(Nc4ccc(I)cc4F)n(C)c(=O)c(C)c32)c1 + C=CC(=O)N1CCN(c2nc(OCC3CCCN3C)nc3c2CCN(c2cccc4cccc(C)c24)C3)CC1CC#N	1.14%
CC(=O)Nc1cccc(-n2c(=O)n(C3CC3)c(=O)c3c(Nc4ccc(I)cc4F)n(C)c(=O)c(C)c32)c1 + COc1cc2nc(C)nc(NC(C)c3cc(N)cc(C(F)(F)F)c3)c2cc1OC1CCOC1	21.8%

Your task in this section: give viability, T/C for each listed record.
1. CC(=O)Nc1cccc(-n2c(=O)n(C3CC3)c(=O)c3c(Nc4ccc(I)cc4F)n(C)c(=O)c(C)c32)c1 + C=CC(=O)N1CCN(c2nc(=O)n(-c3c(C)ccnc3C(C)C)c3nc(-c4c(O)cccc4F)c(F)cc23)C(C)C1
2. CC(=O)Nc1cccc(-n2c(=O)n(C3CC3)c(=O)c3c(Nc4ccc(I)cc4F)n(C)c(=O)c(C)c32)c1 + CNCc1ccccc1-c1csc(C(C)Nc2nc(C)nc3cc(OC)c(OC)cc23)c1

Reply:
1: 28.6%; 2: 0.16%

These data points were gathered from PubChem BioAssay AID1963862.
